# Test system: SF-539 CNS
# assay: NCI-60 one-dose screen, 48 h (100 = growth as untreated, 0 = no growth, -100 = all killed)
# conditionSet: 10 µM unless noted
The panel holds about 83,000 compounds, 20% with a hit somewhere; the sample as a whole holds those more often.
measuredMetric: growth (%)
Only the number, expressed in %, is required.

Request: # value lookup — system SF-539 CNS, readout growth, item COc1ccc(N)cc1N
Response: 92.8

Request: # value lookup — system SF-539 CNS, readout growth, item CC[C@H](C)[C@H](NC(=O)[C@H]1CCCCN1C)C(=O)N(C)[C@H](CCc1nc(C(=O)N[C@@H](Cc2ccccc2)C[C@H](C)C(=O)O)cs1)C(C)C
Response: -12.9

Request: # value lookup — system SF-539 CNS, readout growth, item O=S(OO)c1cc(Cl)c(O)c(Cl)c1 (stereo not given)
Response: 95.7

Request: # value lookup — system SF-539 CNS, readout growth, item COc1cc(/C=C\[N+](=O)[O-])ccc1OCc1ccccc1
Response: 30.8

Request: # value lookup — system SF-539 CNS, readout growth, item [N-]=[N+]=CC(=O)CCC(=O)C=[N+]=[N-]
Response: 88.3

Request: # value lookup — system SF-539 CNS, readout growth, item CC(=O)OC1CC2(O)C(CCC3(C)C(c4ccc(=O)oc4)CCC32O)C2(C)CCC(OC3OC(CO)C(O)C(O)C3O)C=C12 (stereo not given)
Response: -97.9

Request: # value lookup — system SF-539 CNS, readout growth, item COC(=O)CCP(CCC(=O)OC)c1ccccc1
Response: 101

Request: # value lookup — system SF-539 CNS, readout growth, item CC1=CC(=Nc2ccc(N(CCCl)CCCl)cc2)C=C(C)C1=O
Response: 4.45

Request: # value lookup — system SF-539 CNS, readout growth, item COc1ccc2c(c1)c(-c1nc(-c3cn(C)c4ncccc34)cs1)cn2CCCCN1CCOCC1
Response: 30.8

Request: # value lookup — system SF-539 CNS, readout growth, item N#CC(NC(=O)CCl)=C(Cl)Cl
Response: 5.84

----------
# System: OVCAR-3 ovarian
# assay: NCI-60 one-dose screen, 48 h (100 = growth as untreated, 0 = no growth, -100 = all killed)
# conditionSet: 10 µM unless noted
The panel holds about 83,000 compounds, 20% with a hit somewhere; the sample as a whole holds those more often. The source made the active and inactive calls. Rule for the calls: active = growth percent below 10; inactive = the rest.
measuredMetric: growth

Request: Data request, read-out growth, for O=[P+](O)c1cccnc1
Response: 108% (inactive)

Request: Data request, read-out growth, for COC12CC3(C)C(C4=CC(=O)OC4)CCC3(O)C3CCC4=CC(=O)CCC4(CO1)C32 (stereo not given)
Response: 118% (inactive)

Request: Data request, read-out growth, for Cc1ccccc1-n1c(/C=C\c2ccccn2)nc2ccccc2c1=O
Response: 50.3% (inactive)

Request: Data request, read-out growth, for CC[C@H](C)[C@H](NC(=O)[C@H]1CCCCN1C)C(=O)N(C)[C@H](C(=O)NC12CC(C(=O)N[C@@H](Cc3ccccc3)C[C@H](C)C(=O)OC)(C1)C2)C(C)C
Response: 101% (inactive)

Request: Data request, read-out growth, for Oc1cc(N2CC2)c(O)cc1N1CC1
Response: -34.4% (active)

Request: Data request, read-out growth, for Cc1ccc(N2CCN(CCC#N)CC2)cc1
Response: 106% (inactive)

Request: Data request, read-out growth, for O=C1C=C(N2CC2)c2ccccc2C1=O
Response: 83.3% (inactive)

Request: Data request, read-out growth, for CCC1(CCSC#N)C(=O)NC(=O)NC1=O
Response: 105% (inactive)

Request: Data request, read-out growth, for CN1CCN(c2ccc(Cl)cc2)CC1
Response: 125% (inactive)

Request: Data request, read-out growth, for CC(=O)Cc1ccc2c(c1)OCO2
Response: 110% (inactive)

Request: Data request, read-out growth, for CCN1C(=O)CC(=O)N(CC)C1=S
Response: 112% (inactive)

Request: Data request, read-out growth, for CCC1(NC(=O)c2cc(F)c(F)c(F)c2F)C(=O)NC(=O)N(C(C)C)C1=O (stereo not given)
Response: 138% (inactive)

Request: Data request, read-out growth, for CCN1C(=O)NC(=O)C(C)(N2C(=O)c3c(F)c(F)c(F)c(F)c3C2=O)C1=O (stereo not given)
Response: -89.9% (active)

Request: Data request, read-out growth, for CC(=O)OC1CC2(O)C(CCC3(C)C(c4ccc(=O)oc4)CCC32O)C2(C)CCC(OC3OC(CO)C(O)C(O)C3O)C=C12 (stereo not given)
Response: -100% (active)

Request: Data request, read-out growth, for CC[C@H](C)[C@H](NC(=O)c1cnccn1)C(=O)N(C)[C@H](C[C@@H](OC(C)=O)c1nc(C(=O)N[C@@H](Cc2ccccc2)C[C@H](C)C(=O)OC)cs1)C(C)C
Response: -10.2% (active)

Request: Data request, read-out growth, for CCCCS(=O)(=O)Cl
Response: 120% (inactive)

Request: Data request, read-out growth, for C[C@]12CC[C@H]3[C@@H](CC=C4c5nc(-c6ccc(Br)cc6)sc5CC[C@@]43C)[C@@H]1CC[C@@H]2O
Response: 103% (inactive)

Request: Data request, read-out growth, for C[C@H](O)CCC(=O)c1ccoc1
Response: 109% (inactive)

Request: Data request, read-out growth, for Cc1c2ccncc2c(C)c2c1[nH]c1ccccc12
Response: -86% (active)

Request: Data request, read-out growth, for COc1ccc(C(C#N)C(C)=O)cc1 (stereo not given)
Response: 108% (inactive)

Request: Data request, read-out growth, for S=P(SP(=S)(c1ccccc1)c1ccccc1)(c1ccccc1)c1ccccc1
Response: 104% (inactive)

Request: Data request, read-out growth, for CCC(Br)(CC)C(=O)NC(N)=O
Response: 111% (inactive)

Request: Data request, read-out growth, for CC1(C)S[C@H]2CC[C@H]3OC(=O)[C@@H]1N23
Response: 132% (inactive)

Request: Data request, read-out growth, for C/C(=N/OC(=O)N(C)C)c1ccc(Cl)c(Cl)c1
Response: 113% (inactive)

Request: Data request, read-out growth, for C[Se]/C=C1/C(=O)N(c2c(Cl)cccc2Cl)c2ccccc21
Response: 20.3% (inactive)

Request: Data request, read-out growth, for O=S(=O)(F)c1cccc(Cl)c1C[P+](c1ccccc1)(c1ccccc1)c1ccccc1
Response: 96.5% (inactive)

Request: Data request, read-out growth, for O=C1c2ccccc2C(=O)N1N1CC1c1ccccc1 (stereo not given)
Response: 107% (inactive)

Request: Data request, read-out growth, for CC[C@@H](C)C(=O)O[C@H]1[C@H](O)[C@H]2[C@@H](CN3C[C@@H](C)CC[C@H]3[C@@]2(C)O)[C@@H]2C[C@]34O[C@]5(O)[C@@H](OC(=O)[C@@](C)(O)CC)CC[C@@]3(C)[C@@H]5[C@@H](OC(C)=O)[C@@H](OC(C)=O)[C@H]4[C@@]21O
Response: 106% (inactive)

Request: Data request, read-out growth, for C[C@]12CCc3sc(Nc4ccc(OC(F)(F)F)cc4)nc3C1=CC[C@@H]1[C@@H]2CC[C@]2(C)C(=O)CC[C@@H]12
Response: 37.4% (inactive)

Request: Data request, read-out growth, for O=C(O)c1cc([N+](=O)[O-])cc([N+](=O)[O-])c1
Response: 102% (inactive)

Request: Data request, read-out growth, for CCC(=O)C(CC(C)N1CCCCCC1)(c1ccccc1)c1ccccc1 (stereo not given)
Response: 96.5% (inactive)

Request: Data request, read-out growth, for Oc1cc(Cl)ccc1Oc1ccc(Cl)cc1Cl
Response: 6.75% (active)

Request: Data request, read-out growth, for COc1cc(/C=C\[N+](=O)[O-])ccc1OCc1ccccc1
Response: 19.9% (inactive)

Request: Data request, read-out growth, for NC(=O)Oc1cc(OC(N)=O)cc(N(CCCl)CCCl)c1
Response: 82.8% (inactive)

Request: Data request, read-out growth, for CCC(=O)C(CC(C)[N+](C)(C)C)(c1ccccc1)c1ccccc1 (stereo not given)
Response: 70.6% (inactive)

----------
# Test system: COLO 205 colon
# assay: NCI-60 one-dose screen, 48 h (100 = growth as untreated, 0 = no growth, -100 = all killed)
# conditionSet: 10 µM unless noted
The panel holds about 83,000 compounds, 20% with a hit somewhere; the sample as a whole holds those more often. Active and inactive are the calls of the source. The calls were made as follows: active = growth percent below 10; inactive = the rest.
Answer each item with its documented growth.

Request: Data request, read-out growth, for COc1cc(C2C3=C(CCCC3=O)N(CCO)c3cc4c(cc32)CCC4)cc(OC)c1OC (configuration not stated)
Response: 74% (inactive)

Request: Data request, read-out growth, for CC(C)CCC1C(=O)NC(=O)NC1=O
Response: 100% (inactive)

Request: Data request, read-out growth, for CC1(C)N=C(N)N=C(N)N1c1ccc(CCC(=O)Nc2ccc(S(=O)(=O)F)cc2)cc1
Response: 28.8% (inactive)

Request: Data request, read-out growth, for Oc1ccccc1C=NCCN=Cc1ccccc1O
Response: 118% (inactive)

Request: Data request, read-out growth, for N#CCC(=O)c1ccccc1
Response: 101% (inactive)

Request: Data request, read-out growth, for C[C@]12CC[C@H]3[C@@H](CC=C4c5nc(N)sc5CC[C@@]43C)[C@@H]1CC[C@@H]2O
Response: 113% (inactive)

Request: Data request, read-out growth, for Nc1c(Cl)c(Cl)nc(C(=O)O)c1Cl
Response: 117% (inactive)

Request: Data request, read-out growth, for CCC1(NC(=O)c2cc(F)c(F)c(F)c2F)C(=O)NC(=O)N(C(C)C)C1=O (configuration not stated)
Response: 141% (inactive)

Request: Data request, read-out growth, for Cc1cc[c-]cc1.Fc1c[c-]c(-c2ccccn2)c(F)c1.N#CCC[PH+](CCC#N)c1ccccc1.[Pt+2]
Response: 12.5% (inactive)

Request: Data request, read-out growth, for O=[N+]([O-])c1ccc(OCc2ccc(S(=O)(=O)F)c(Cl)c2)c(Cl)c1
Response: 101% (inactive)

Request: Data request, read-out growth, for CCC1(CCSC#N)C(=O)NC(=O)NC1=O
Response: 108% (inactive)

Request: Data request, read-out growth, for Cc1cc(Br)c([N+](=O)[O-])cc1[N+](=O)[O-]
Response: 72.9% (inactive)

Request: Data request, read-out growth, for O=C(NC(Cl)=C(Cl)Cl)P(=O)(c1ccccc1)c1ccccc1
Response: 118% (inactive)

Request: Data request, read-out growth, for C[N+]1(CC#CC[N+]2(C)CCCC2)CCCC1
Response: 103% (inactive)

Request: Data request, read-out growth, for COc1ccc2c(c1)c(-c1nc(-c3cn(C)c4ncccc34)cs1)cn2CCCCN1CCOCC1
Response: -91.7% (active)

Request: Data request, read-out growth, for COC12CC3(C)C(C4=CC(=O)OC4)CCC3(O)C3CCC4=CC(=O)CCC4(CO1)C32 (configuration not stated)
Response: 116% (inactive)

Request: Data request, read-out growth, for C#COc1cccc(Nc2ncnc3cc(NC(=O)CF)ccc23)c1
Response: 13.2% [6.25 µM] (inactive)

Request: Data request, read-out growth, for O=NN1CCCCC1
Response: 107% (inactive)

Request: Data request, read-out growth, for CN1[C@@H](CC(=O)c2ccccc2)CCC[C@H]1CC(=O)c1ccccc1
Response: 114% (inactive)

Request: Data request, read-out growth, for C[C@]12CCC(=O)C[C@@H]1CC[C@@H]1[C@@H]2CC[C@]2(C)[C@@H](OC(=O)N(CCCl)N=O)CC[C@@H]12
Response: 31.8% (inactive)

Request: Data request, read-out growth, for CC1(C)CN=C(NN=C(/C=C/c2ccc(C(F)(F)F)cc2)/C=C/c2ccc(C(F)(F)F)cc2)NC1
Response: -91.6% (active)

Request: Data request, read-out growth, for O=C1CN2CCC1CC2
Response: 116% (inactive)
